targetEntity: T1, human CD73 (SEQ ID NO: 70) (Homo sapiens, UniProt P21589)
T1 construct: purchased BPS Bioscience
T1 sequence (P21589 27-549): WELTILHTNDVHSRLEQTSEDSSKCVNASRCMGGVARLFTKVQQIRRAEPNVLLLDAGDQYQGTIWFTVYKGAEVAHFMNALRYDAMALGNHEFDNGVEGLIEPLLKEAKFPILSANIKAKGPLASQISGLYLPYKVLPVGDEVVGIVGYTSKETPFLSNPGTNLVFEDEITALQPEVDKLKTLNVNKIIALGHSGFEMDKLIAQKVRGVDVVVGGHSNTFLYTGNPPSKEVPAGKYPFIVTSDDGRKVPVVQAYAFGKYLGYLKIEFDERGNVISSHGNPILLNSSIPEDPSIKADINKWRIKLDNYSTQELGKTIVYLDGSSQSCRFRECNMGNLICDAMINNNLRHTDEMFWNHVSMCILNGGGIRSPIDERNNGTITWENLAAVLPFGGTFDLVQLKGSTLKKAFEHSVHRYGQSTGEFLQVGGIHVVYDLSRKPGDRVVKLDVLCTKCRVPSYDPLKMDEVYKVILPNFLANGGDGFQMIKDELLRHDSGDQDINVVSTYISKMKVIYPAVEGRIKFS
measurementNotes: SPR (Biacore 8K) binding affinity and kinetics to human CD73
studyConditions: human CD73, open conformation, 25° C.
Procedure: The SPR running buffer (10 mM HEPES, 150 mM NaCl, 3 mM EDTA and 0.05% v/v Surfactant P20, pH 7.4) was prepared from 10×HBS-EP Buffer (GE Healthcare). Anti-human Fc antibodies (GE Healthcare) were immobilized via amine coupling on all sixteen flow cells of an S series sensor chip CM5 (GE Healthcare). The immobilization levels were ˜9000 RU for all flow cells. […]
outcomeMeasure: ka (M⁻¹ s⁻¹)
Give the value, in units of M⁻¹ s⁻¹, as a plain number.

Requested field: ka. Item: CL25_hu_10-4: humanized CL25 antibody, VH and VL in FIG. 1A (antibody, V domains shown) VH: EVQLVQSGAEVKKPGESLKISCKGSGYTFTSYGLSWVRQMPGKGLEWMGEIYPGSGNTYYNEKFKGQVTISADKSISTAYLQWSSLKASDTAMYYCARYDYLGSSYGFDYWGAGTTVTVSS VL: DIQMTQSPSSLSASVGDRVTITCKASQDVSTAVAWYQQKPGKAPKLLLYSASYRYSGVPSRFSGSGSGTDYTLTISSLQPEDFATYYCQQHYNTPYTFGGGTKLEIK 887000

# query: ka of entry CL25_hu_8-6: humanized CL25 antibody, VH and VL in FIG. 1C (antibody, V domains shown) VH: QVQLVQSGAEVKKPGASVKVSCKASGYTFTSYGLSWVRQATGQGLEWMGEIYPGSGNTYYNEKFKGRVTMTRNTSISTAYMELSSLRSEDTAVYYCARYDYLGSSYGFDYWGAGTTVTVSS VL: AIRMTQSPSSFSASTGDRVTITCKASQDVSTAVAWYQQKPGKAPKLLIYSASYRYSGVPSRFSGSGSGTDFTLTISCLQSEDFATYYCQQHYNTPYTFGGGTKLEIK 715000

Query (molecule): CL25_hu_11-4: humanized CL25 antibody, VH and VL in FIG. 1A (antibody, V domains shown) VH: QVQLVQSGAEVKKPGASVKVSCKASGYTFTSYGLSWVRQATGQGLEWMGEIYPGSGNTYYNEKFKGRVTMTANTSISTAYMELSSLRSEDTAVYYCARYDYLGSSYGFDYWGAGTTVTVSS VL: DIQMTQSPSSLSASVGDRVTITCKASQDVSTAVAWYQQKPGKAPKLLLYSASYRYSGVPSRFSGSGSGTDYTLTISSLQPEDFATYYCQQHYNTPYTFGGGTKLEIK ; field requested: ka 624000

Which ka value is on record for CL25_hu_8-4: humanized CL25 antibody, VH and VL in FIG. 1B (antibody, V domains shown) VH: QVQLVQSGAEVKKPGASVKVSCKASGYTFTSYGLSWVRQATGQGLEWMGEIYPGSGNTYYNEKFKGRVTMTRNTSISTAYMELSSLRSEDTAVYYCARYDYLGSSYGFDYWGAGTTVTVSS VL: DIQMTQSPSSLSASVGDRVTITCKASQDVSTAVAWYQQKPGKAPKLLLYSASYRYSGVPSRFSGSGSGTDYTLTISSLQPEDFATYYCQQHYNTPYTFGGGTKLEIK ? 770000

Could you tell me which ka is on file for CL25_hu_10-6: humanized CL25 antibody, VH and VL in FIG. 1A (antibody, V domains shown) VH: EVQLVQSGAEVKKPGESLKISCKGSGYTFTSYGLSWVRQMPGKGLEWMGEIYPGSGNTYYNEKFKGQVTISADKSISTAYLQWSSLKASDTAMYYCARYDYLGSSYGFDYWGAGTTVTVSS VL: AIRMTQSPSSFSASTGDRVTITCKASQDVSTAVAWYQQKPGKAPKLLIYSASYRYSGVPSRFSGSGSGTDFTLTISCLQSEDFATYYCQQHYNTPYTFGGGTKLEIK ? 524000

Param item = CL25_hu_9-5: humanized CL25 antibody, VH and VL in FIG. 1C (antibody, V domains shown) VH: QVQLVQSGAEVKKPGSSVKVSCKASGYTFTSYGLSWVRQAPGQGLEWMGEIYPGSGNTYYNEKFKGRVTITADESTSTAYMELSSLRSEDTAVYYCARYDYLGSSYGFDYWGAGTTVTVSS VL: DIVMTQSPDSLAVSLGERATINCKASQDVSTAVAWYQQKPGQPPKLLIYSASYRYSGVPDRFSGSGSGTDFTLTISSLQAEDVAVYYCQQHYNTPYTFGGGTKLEIK ; retrieve measured ka. 565000

Given the molecule CL25_hu_11-6: humanized CL25 antibody, VH and VL in FIG. 1B (antibody, V domains shown) VH: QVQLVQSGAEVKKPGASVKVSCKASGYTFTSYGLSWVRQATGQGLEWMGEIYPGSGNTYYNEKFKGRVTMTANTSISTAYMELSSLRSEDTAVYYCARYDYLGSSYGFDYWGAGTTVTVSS VL: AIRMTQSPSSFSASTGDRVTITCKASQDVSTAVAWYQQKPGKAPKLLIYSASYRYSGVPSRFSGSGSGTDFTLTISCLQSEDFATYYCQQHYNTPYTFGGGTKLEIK , what is its reported ka? 550000
